meta.source: patent US8088763B2

tested system: 5HT-uptake (Rattus norvegicus)
Construct: synaptosomes were freshly isolated from areas of rats' brains
Sequence (P31652 whole entry): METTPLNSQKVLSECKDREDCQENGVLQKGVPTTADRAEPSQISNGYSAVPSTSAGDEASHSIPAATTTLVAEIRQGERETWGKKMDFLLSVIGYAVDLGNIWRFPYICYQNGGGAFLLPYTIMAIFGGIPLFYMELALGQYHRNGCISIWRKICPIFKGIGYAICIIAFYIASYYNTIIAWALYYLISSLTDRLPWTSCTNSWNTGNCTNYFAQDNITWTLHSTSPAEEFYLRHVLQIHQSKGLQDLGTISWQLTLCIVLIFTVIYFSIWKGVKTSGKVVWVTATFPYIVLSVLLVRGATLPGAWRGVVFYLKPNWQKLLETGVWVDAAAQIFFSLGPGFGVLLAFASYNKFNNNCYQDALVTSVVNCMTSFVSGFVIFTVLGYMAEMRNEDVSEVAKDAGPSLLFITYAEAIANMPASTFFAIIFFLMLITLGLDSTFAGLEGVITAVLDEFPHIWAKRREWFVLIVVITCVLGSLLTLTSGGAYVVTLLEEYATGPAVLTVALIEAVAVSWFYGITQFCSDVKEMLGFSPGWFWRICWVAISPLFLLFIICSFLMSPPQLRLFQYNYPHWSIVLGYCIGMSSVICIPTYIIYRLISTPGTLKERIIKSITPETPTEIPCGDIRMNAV
experimental protocol: biochemical
assay context: read-out: 5HT-uptake [10 μM], % inhibition
Please go through the items and note down their inhibition at 10 µM.
Supply the numeric figure in %, leaving out any unit text.

query: # get_value(readout= inhibition at 10 µM, system= 5HT-uptake (Rattus norvegicus)) for CN(C)C1(Cc2cccc(Cl)c2)CCC(NC(=O)CCC(=O)NCC2CCCO2)CC1 (centres unmarked) [Example 29]
result: 94

query: # get_value(readout= inhibition at 10 µM, system= 5HT-uptake (Rattus norvegicus)) for Cc1ccc(CC2(N(C)C)CCC(NC(=O)CCC(=O)N3CCC(CNC(=O)C(F)(F)F)CC3)CC2)cc1 (centres unmarked) [Example 51]
result: 92

query: # get_value(readout= inhibition at 10 µM, system= 5HT-uptake (Rattus norvegicus)) for Cc1cccc(CC2(N(C)C)CCC(NC(=O)CCC(=O)NC(C)c3ccc4ccccc4c3)CC2)c1 (centres unmarked) [Example 122]
result: 93

query: # get_value(readout= inhibition at 10 µM, system= 5HT-uptake (Rattus norvegicus)) for CC1CCN(C(=O)CCC(=O)NC2CCC(Cc3cccc(Cl)c3)(N(C)C)CC2)CC1 (centres unmarked) [Example 92]
result: 92

query: # get_value(readout= inhibition at 10 µM, system= 5HT-uptake (Rattus norvegicus)) for Cc1cccc(CC2(N(C)C)CCC(NC(=O)CCC(=O)N3CCN(c4ccc(Cl)cc4)CC3)CC2)c1 (centres unmarked) [Example 113]
result: 97

query: # get_value(readout= inhibition at 10 µM, system= 5HT-uptake (Rattus norvegicus)) for Cc1ccc(CC2(N(C)C)CCC(NC(=O)CCC(=O)Nc3ccc(OCc4ccccc4)cc3)CC2)cc1 (centres unmarked) [Example 101]
result: 94

query: # get_value(readout= inhibition at 10 µM, system= 5HT-uptake (Rattus norvegicus)) for CN(Cc1cccnc1)C(=O)CCC(=O)NC1CCC(Cc2ccc(Cl)cc2)(N(C)C)CC1 (centres unmarked) [Example 72]
result: 95

query: # get_value(readout= inhibition at 10 µM, system= 5HT-uptake (Rattus norvegicus)) for COc1ccccc1N1CCN(C(=O)CCC(=O)NC2CCC(Cc3ccc(Cl)cc3)(N(C)C)CC2)CC1 (centres unmarked) [Example 47]
result: 93

query: # get_value(readout= inhibition at 10 µM, system= 5HT-uptake (Rattus norvegicus)) for CCOC(=O)CCNC(=O)CCC(=O)NC1CCC(Cc2ccc(C)cc2)(N(C)C)CC1 (centres unmarked) [Example 9]
result: 93

query: # get_value(readout= inhibition at 10 µM, system= 5HT-uptake (Rattus norvegicus)) for CN(C)C1(Cc2ccc(Cl)cc2)CCC(NC(=O)CCC(=O)Nc2ccc3c(c2)CCC3)CC1 (centres unmarked) [Example 100]
result: 92

query: # get_value(readout= inhibition at 10 µM, system= 5HT-uptake (Rattus norvegicus)) for CN(C)C1(Cc2ccc(Cl)cc2)CCC(NC(=O)CCC(=O)NCCc2c[nH]c3ccccc23)CC1 (centres unmarked) [Example 52]
result: 96
